# target: RPS6KA4 KD1 KD2 (human)
# procedureSummary: Caliper, Mobility shift assay off-chip
# testParameters: compound 0.1 µM
Exercise: state measured inhibition for each of the compounds provided.
Respond with the bare value in %.

Query block: Entry Cn1cc(-c2cnc3ccc4ccc(CS(N)(=O)=O)cc4c(=O)c3c2)cn1 needs its inhibition filled in; supply it.
Result block: 15.2

Query block: Tell me measured inhibition for Cn1cc(-c2cnc3ccc4ccc(CS(=O)(=O)NC5CCCCC5)cc4c(=O)c3c2)cn1 please.
Result block: -2.1

Query block: Please indicate inhibition recorded for O=C(CCc1ccc2ccc3ncc(C4CCNCC4)cc3c(=O)c2c1)NCc1ccccn1
Result block: -5.8

Query block: Hello, please tell me recorded inhibition for this one: O=c1c2cc(CS(=O)(=O)NCc3ccccn3)ccc2ccc2ncc(C3CCNCC3)cc12
Result block: -5.3

Query block: Quote inhibition reported for Cn1cc(-c2cnc3ccc4ccc(CS(=O)(=O)CCc5ccccn5)cc4c(=O)c3c2)cn1 please.
Result block: -2.5

Query block: Tell us which inhibition value is on record for CN(c1ccc2ccc3ncc(-c4cnn(C)c4)cc3c(=O)c2c1)S(=O)(=O)NCc1ccccn1
Result block: -2.2

Query block: Specify measured inhibition for Cn1cc(-c2cnc3ccc4ccc(CS(=O)(=O)NCC5CCCCN5)cc4c(=O)c3c2)cn1 (configuration not stated) .
Result block: 0.2

###

What inhibition was measured for each of the following?
# target: CSNK1A1 (human) (UniProt P48729)
# Sequence (P48729 whole entry, looked up): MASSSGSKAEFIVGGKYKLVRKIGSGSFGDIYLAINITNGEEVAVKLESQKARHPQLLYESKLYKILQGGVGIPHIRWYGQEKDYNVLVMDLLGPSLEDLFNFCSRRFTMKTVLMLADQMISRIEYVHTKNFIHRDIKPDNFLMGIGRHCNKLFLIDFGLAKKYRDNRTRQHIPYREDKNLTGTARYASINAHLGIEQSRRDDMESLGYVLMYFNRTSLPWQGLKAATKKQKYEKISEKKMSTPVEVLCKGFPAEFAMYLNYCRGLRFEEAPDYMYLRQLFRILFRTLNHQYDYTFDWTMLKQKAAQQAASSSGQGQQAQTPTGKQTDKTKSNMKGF
# procedureSummary: Caliper, Mobility shift assay off-chip
# testParameters: compound 1.0 µM
Write the figure, then the unit, nothing else.

Query block: In one line, give reported inhibition of the entry Cn1cc(-c2cnc3ccc4ccc(CS(=O)(=O)CCc5ccccn5)cc4c(=O)c3c2)cn1 .
Result block: -0.9%

Query block: Provide one value: measured inhibition of CN(c1ccc2ccc3ncc(-c4cnn(C)c4)cc3c(=O)c2c1)S(=O)(=O)NCc1ccccn1
Result block: 7.2%

Query block: Determine from records and report inhibition for Cn1cc(-c2cnc3ccc4ccc(CS(=O)(=O)NCC5CCCCN5)cc4c(=O)c3c2)cn1 (stereo not given)
Result block: -11%

Query block: Tell me inhibition reported for O=C(CCc1ccc2ccc3ncc(C4CCNCC4)cc3c(=O)c2c1)NCc1ccccn1
Result block: -0.6%

Query block: Give the value of inhibition reported for the following: Cn1cc(-c2cnc3ccc4ccc(CS(N)(=O)=O)cc4c(=O)c3c2)cn1
Result block: -4.1%

###

# target: CAMK2G (human) (UniProt Q13555)
# Sequence (Q13555 whole entry, looked up): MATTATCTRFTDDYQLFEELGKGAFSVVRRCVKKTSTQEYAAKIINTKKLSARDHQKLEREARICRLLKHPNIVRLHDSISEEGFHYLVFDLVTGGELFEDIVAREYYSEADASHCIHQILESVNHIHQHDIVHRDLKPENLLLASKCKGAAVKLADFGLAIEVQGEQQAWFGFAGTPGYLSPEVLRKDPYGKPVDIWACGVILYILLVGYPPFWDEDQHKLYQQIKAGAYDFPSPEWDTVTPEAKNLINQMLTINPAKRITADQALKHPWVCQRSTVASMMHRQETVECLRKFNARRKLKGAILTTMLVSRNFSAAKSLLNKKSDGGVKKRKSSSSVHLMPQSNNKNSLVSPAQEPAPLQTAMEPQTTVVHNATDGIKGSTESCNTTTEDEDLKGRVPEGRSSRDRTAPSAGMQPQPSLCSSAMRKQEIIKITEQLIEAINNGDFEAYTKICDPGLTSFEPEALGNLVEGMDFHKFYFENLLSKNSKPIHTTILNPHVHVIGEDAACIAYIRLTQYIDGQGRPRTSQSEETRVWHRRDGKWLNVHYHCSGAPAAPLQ
# procedureSummary: Caliper, Mobility shift assay off-chip
# testParameters: compound 0.1 µM
propertyMeasured: inhibition (%)
I only need the number, in %, no unit after it.

Query block: Quickly give me recorded inhibition for O=c1c2cc(CS(=O)(=O)NCc3ccccn3)ccc2ccc2ncc(C3CCNCC3)cc12
Result block: 2.1

Query block: Look up and state reported inhibition for Cn1cc(-c2cnc3ccc4ccc(CS(N)(=O)=O)cc4c(=O)c3c2)cn1
Result block: -17.9

Query block: For the compound O=C(CCc1ccc2ccc3ncc(C4CCNCC4)cc3c(=O)c2c1)NCc1ccccn1 , report inhibition.
Result block: -3.5

Query block: Please give measured inhibition of the following entry: Cn1cc(-c2cnc3ccc4ccc(CS(=O)(=O)CCc5ccccn5)cc4c(=O)c3c2)cn1
Result block: -0.2

Query block: Identify inhibition associated with the compound Cn1cc(-c2cnc3ccc4ccc(CS(=O)(=O)NC5CCCCC5)cc4c(=O)c3c2)cn1
Result block: -2.8

Query block: // fetch inhibition given entry Cn1cc(-c2cnc3ccc4ccc(CS(=O)(=O)NCC5CCCCN5)cc4c(=O)c3c2)cn1 (stereo unspecified)
Result block: -7.4
